The values you see were collected from a melting point compilation (Tetko et al.; mined from patent text by program, amines drawn as free bases though some values may be those of a salt).

reported.endpoint: melting point

Please state, for each entry, its recorded melting point.
1. CCOc1c(Br)cc(C(C)(C)C)cc1C(C)(C)C
2. CCOC(=O)C(C)Oc1ccc(Oc2nc3ccc(Cl)cc3cc2Cl)cc1 (stereo unspecified)
3. CCOC(=O)Cc1c(C(=O)OCC)c(C)c(C(=O)c2ccc(C)cc2)n1C
4. CNC(=O)N(c1ccccc1)c1ncc(C)n1-c1ccccc1
5. CCCCNC(=O)NS(=O)(=O)c1c(Cl)cccc1S(=O)(=O)N(C)C
6. CC(=O)C(=NNc1ccccc1)C(=O)N(C(C)C)C(C)C

A:
1. 55 to 56 °C
2. 70 °C
3. 108 to 111 °C
4. 147 °C
5. 107 to 115 °C
6. 143 to 145 °C
